Entry source: ChEMBL document CHEMBL3608246

# Test summary: Half life in Sprague-Dawley rat at 5 mg/kg, iv by LC/MS/MS method
# Type: ADME, organism-based
# Experimental setup: in vivo
Measured attribute: half-life (h)
One number for each entry, in h.

Molecule	Output unit	Recorded measurement
COC(=O)N[C@@H](C(=O)N1CCC[C@H]1C(=O)Nc1ccc(-c2ccc(NC(=O)[C@@H]3CCCN3C(=O)[C@H](NC(=O)OC)c3ccccc3)cc2C(F)(F)F)c(C(F)(F)F)c1)c1ccccc1 (stereo in doubt; form 1)	h	2.9
COC(=O)N[C@@H](C(=O)N1CCC[C@H]1C(=O)Nc1ccc(-c2ccc(NC(=O)[C@@H]3CCCN3C(=O)[C@H](NC(=O)OC)c3ccccc3)cc2F)c(F)c1)c1ccccc1	h	0.88
COC(=O)N[C@@H](C(=O)N1CCC[C@H]1C(=O)Nc1ccc(-c2ccc(NC(=O)[C@@H]3CCCN3C(=O)[C@H](NC(=O)OC)c3ccccc3)cc2Cl)c(Cl)c1)c1ccccc1	h	1.55
COC(=O)N[C@@H](C(=O)N1CCC[C@H]1C(=O)Nc1ccc2c(c1)C(F)(F)c1cc(NC(=O)[C@@H]3CCCN3C(=O)[C@H](NC(=O)OC)c3ccccc3)ccc1-2)c1ccccc1	h	0.9

Continue with the next molecule.
What value of half-life has been reported for the following molecule? `COC(=O)N[C@@H](C(=O)N1CCC[C@H]1C(=O)Nc1ccc2c(c1)C(C)(C)c1cc(NC(=O)[C@@H]3CCCN3C(=O)[C@H](NC(=O)OC)c3ccccc3)ccc1-2)c1ccccc1`
1.62

* * *

# Test summary: Stability in rat plasma assessed as compound remaining at 100 uM after 2 hrs by LC-MS/MS method
# Assay type: ADME, cell-free
# Experimental setup: read-out: Stability
Measured attribute: remaining at 2 h, 100 µM (%)
Numbers only, in %.

Example results:
Compound	remaining at 2 h, 100 µM / %
COC(=O)N[C@@H](C(=O)N1CCC[C@H]1C(=O)Nc1ccc(-c2ccc(NC(=O)[C@@H]3CCCN3C(=O)[C@H](NC(=O)OC)c3ccccc3)cc2Cl)c(Cl)c1)c1ccccc1	70
COC(=O)N[C@@H](C(=O)N1CCC[C@H]1C(=O)Nc1ccc(-c2ccc(NC(=O)[C@@H]3CCCN3C(=O)[C@H](NC(=O)OC)c3ccccc3)cc2C(F)(F)F)c(C(F)(F)F)c1)c1ccccc1 (stereo in doubt; form 1)	99

Continue with the next compound.
What value of remaining at 2 h, 100 µM has been reported for the following compound? `COC(=O)N[C@@H](C(=O)N1CCC[C@H]1C(=O)Nc1ccc(-c2ccc(NC(=O)[C@@H]3CCCN3C(=O)[C@H](NC(=O)OC)c3ccccc3)cc2F)c(F)c1)c1ccccc1`
63

* * *

# System: Hepatitis C virus
# Test summary: Antiviral activity against HCV genotype 2a JFH5a infected in human Huh7.5.1 cells transfected with JFH5a-Rluc-ad34 assessed as reduction in virus proliferation by luciferase reporter gene assay
# Assay type: functional, cell-based, Hepacivirus hominis, Huh-7
# Experimental setup: Hepatitis C virus, genotype 2a JFH5a, Huh-7
Labelling field: enter fulfilled if recorded EC50 is less than 3 nM. Enter not fulfilled if it equals or exceeds that cut-off.

Examples with answers:
Compound	Category
COC(=O)N[C@@H](C(=O)N1CCC[C@H]1C(=O)Nc1ccc(-c2ccc(NC(=O)[C@@H]3CCCN3C(=O)[C@H](NC(=O)OC)c3ccccc3)c(C)c2)cc1C)c1ccccc1	not fulfilled
COC(=O)N[C@@H](C(=O)N1CCC[C@@]1(C)C(=O)Nc1ccc(-c2ccc(NC(=O)[C@]3(C)CCCN3C(=O)[C@H](NC(=O)OC)c3ccccc3)cc2)cc1)c1ccccc1	not fulfilled
COC(=O)N[C@@H](C(=O)N1CCC[C@@H]1C(=O)Nc1ccc(-c2ccc(NC(=O)[C@H]3CCCN3C(=O)[C@H](NC(=O)OC)c3ccccc3)cc2)cc1)c1ccccc1	not fulfilled
COC(=O)N[C@@H](C(=O)N1CSC[C@H]1C(=O)Nc1ccc(-c2ccc(NC(=O)[C@@H]3CSCN3C(=O)[C@H](NC(=O)OC)c3ccccc3)cc2)cc1)c1ccccc1	not fulfilled
COC(=O)N[C@@H](C(=O)N1CCC[C@H]1C(=O)Nc1ccc(-c2ccc(NC(=O)[C@@H]3CCCN3C(=O)[C@H](NC(=O)OC)c3ccccc3)cc2F)c(F)c1)c1ccccc1	fulfilled

Record `COC(=O)N[C@@H](C(=O)N1CCC[C@H]1C(=O)Nc1ccc(-c2ccc(NC(=O)[C@@H]3CCCN3C(=O)[C@H](NC(=O)OC)c3ccccc3)cc2Br)c(Br)c1)c1ccccc1` : is its EC50 strictly below 3 nM?
fulfilled

One more compound: `COC(=O)N[C@@H](C(=O)N1CCC[C@H]1C(=O)Nc1ccc2c(c1)C(C)(C)c1cc(NC(=O)[C@@H]3CCCN3C(=O)[C@H](NC(=O)OC)c3ccccc3)ccc1-2)c1ccccc1`
fulfilled

One more compound: `COC(=O)N[C@@H](C(=O)N1CCC[C@H]1C(=O)Nc1ccc2c(c1)C(F)(F)c1cc(NC(=O)[C@@H]3CCCN3C(=O)[C@H](NC(=O)OC)c3ccccc3)ccc1-2)c1ccccc1`
fulfilled

One more compound: `COC(=O)N[C@@H](C(=O)N1CCC[C@H]1C(=O)Nc1ccc2c(c1)C(=O)c1cc(NC(=O)[C@@H]3CCCN3C(=O)[C@H](NC(=O)OC)c3ccccc3)ccc1-2)c1ccccc1`
not fulfilled

One more compound: `COC(=O)N[C@@H](C(=O)N1CCC[C@H]1C(=O)Nc1ccc(-c2ccc(NC(=O)[C@@H]3CCCN3C(=O)[C@H](NC(=O)OC)c3ccccc3)cc2Cl)c(Cl)c1)c1ccccc1`
fulfilled
